Listed below: normalized growth values for each entry.
- ASSAY OVERVIEW: chemical genetic growth profiling, strain panel (AID 1159580);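 also: tested at 20 µM; growth read once vehicle control cultures reached saturation at 30 °C; 1 = growth at the plate median or of vehicle wells; lower values mean less growth of the strain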
- RECORDED CONDITIONS: S. cerevisiae deletion strains, growth OD, locus YGR229C, strain SMI1, stronger effect = lower value
Screen size: about 5,500 compounds; about 2,000 (36%) were called active. Inconclusive results (about 18%) are left out. The list shows a part of the results.
Returns: the value as a bare number; no unit string appended.

Some solved cases for reference:
{"columns": ["COMPOUND", "RECORDED RESULT"],
 "data": [
  ["C=C[C@@](C)(O)CCC1C(=C)C[C@H](O)C2C(C)(C)CCCC12C (some centres not stated)", 1],
  ["COC(=O)c1cc(=O)c(O)c2c(O)c(O)ccc2c1", 0.151],
  ["NCCC(O)C(=O)NC1CC(N)C(OC2OC(CN)C(O)C(O)C2N)C(OC2OC(CO)C(O)C2O)C1O (configuration not stated)", 1.02],
  ["CCOC(=O)N=Nc1c(O)[nH]c2ccc(F)cc12", 1],
  ["NCCCS(=O)(=O)O", 1],
  ["O=C1NCC2(CCN(CCc3ccccc3)CC2)O1", 1],
  ["Clc1ccc(C(OCCN2CCCCC2)c2ccccc2)cc1 (configuration not stated)", 0.901],
  ["Fc1ccc(C(OCCN2CCN(CCCc3ccccc3)CC2)c2ccc(F)cc2)cc1", 0.0957],
  ["COc1ccc2c(c1)OC1(O)COc3cc(OC)c(OC)cc3C1=C2 (configuration not stated)", 0.967],
  ["Fc1ccc(C(OCCCc2cnc[nH]2)c2ccc(F)cc2)cc1", 1.02]
]}

Exercise: Param item = "O=C(/C=C/c1ccc(O)c(O)c1)OCCc1ccccc1" ; retrieve measured normalized growth.
Solution: 0.357

Exercise: I have this compound here, O=C1C2C=CC=CC2=NC(=S)N1CCN1CCC(=C(c2ccc(F)cc2)c2ccc(F)cc2)CC1 (configuration not stated) , and I need its recorded normalized growth.
Solution: 0.717

----------
- ASSAY OVERVIEW: chemical genetic growth profiling, strain panel (AID 1159580)
- RECORDED CONDITIONS: S. cerevisiae deletion strains, growth OD, locus YMR307W, strain GAS1, stronger effect = lower value
Hit rate of the full screen: of about 5,500 compounds, about 2,000 (36%) were called active. Inconclusive results (about 18%) are left out. The list shows a part of the results.
Each entry below carries its recorded normalized growth.
// no unit string in output, number only

Here is how some compounds turned out for normalized growth.
{"columns": ["COMPOUND", "normalized growth"],
 "data": [
  ["CCOC(=O)Cc1csc(N=CNO)n1", 1.03],
  ["O=C(O)[C@@H]1CCN1", 0.992],
  ["COc1c(N2CCNC(C)C2)c(F)cc2c(=O)c(C(=O)O)cn(C3CC3)c12 (stereo unspecified)", 0.845],
  ["CC1(C)CCC[C@@]2(C)C1[C@@H](O)C[C@]1(C)C2CC[C@@H]2[C@@]3(C)CC[C@H](C(C)(C)O)[C@@H]3CC[C@@]21C (stereo partly specified)", 1.12],
  ["CNC(=O)[C@H]1O[C@@H](n2cnc3c(NCc4cccc(I)c4)ncnc32)C(O)[C@H]1O (stereo partly specified)", 0.992],
  ["OC1(c2ccc(F)cc2)Cc2ccccc2C2=NCCN21 (stereo unspecified)", 0.925],
  ["C=C[C@@](C)(O)CCC1C(=C)C[C@H](OC(C)=O)C2C(C)(C)CCCC12C (stereo partly specified)", 0.912],
  ["CCN1CCCC(OC(=O)C(c2ccccc2)c2ccccc2)C1 (stereo unspecified)", 1.09]
]}

With those in mind, consider the next compound.
Exercise: Param item = "C[C@H]1COc2c(N3CCN(C)CC3)c(F)cc3c(=O)c(C(=O)O)cn1c23" ; retrieve measured normalized growth.
Solution: 1.04

----------
- ASSAY OVERVIEW: chemical genetic growth profiling, strain panel (AID 1159580);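 also: tested at 20 µM; growth read once vehicle control cultures reached saturation at 30 °C; 1 = growth at the plate median or of vehicle wells; lower values mean less growth of the strain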
- RECORDED CONDITIONS: S. cerevisiae deletion strains, growth OD, locus YOL147C, strain pex11, stronger effect = lower value
Hit rate of the full screen: of about 5,500 compounds, about 2,000 (36%) were called active. Roughly 18% stayed inconclusive and do not appear here. The list shows a part of the results.
OBSERVABLE: normalized growth
Reply with the value as a number alone.

Here's what some known entries look like.
{"columns": ["COMPOUND", "normalized growth"],
 "data": [
  ["O=C1CCC(N2C(=O)c3ccccc3C2=O)C(=O)N1 (configuration not stated)", 0.989],
  ["CCN(CC)Cc1ccc(Nc2ccnc3cc(Cl)ccc23)cc1O", 0.996],
  ["Oc1cc(O)c2c(c1)OC(c1cc(O)c(O)c(O)c1)C(O)C2c1c(O)cc(O)c2c1OC(c1cc(O)c(O)c(O)c1)C(O)C2c1c(O)cc(O)c2c1OC(c1cc(O)c(O)c(O)c1)C(O)C2 (configuration not stated)", 1.01]
]}

Exercise: What does the data say about its normalized growth? Entry: "COc1ccc2c(c1)OC/C(=C/c1ccc(OC)c(OC)c1)C2=O"
Solution: 0.956

Exercise: Sample "CC[C@@]1(O)C[C@H](O[C@H]2C[C@H](N(C)C)[C@H](O)[C@H](C)O2)c2c(cc3c(c2O)C(=O)c2c(O)cccc2C3=O)[C@H]1C(=O)OC" — what was its normalized growth?
Solution: 0.837

Exercise: So what does the record say about normalized growth for "CN1CC(CO)=C[C@@H]2c3cccc4[nH]cc(c34)C[C@H]21" ?
Solution: 1.01

Exercise: Return reported normalized growth; argument: Clc1ccc(C(OCCN2CCCCC2)c2ccccc2)cc1 (configuration not stated)
Solution: 0.997

Exercise: Query: normalized growth; subject: Cc1ccccc1C(OCCN(C)C)c1ccccc1 (configuration not stated)
Solution: 1.01

----------
- ASSAY OVERVIEW: chemical genetic growth profiling, strain panel (AID 1159580);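 also: tested at 20 µM; growth read once vehicle control cultures reached saturation at 30 °C; 1 = growth at the plate median or of vehicle wells; lower values mean less growth of the strain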
- RECORDED CONDITIONS: S. cerevisiae deletion strains, growth OD, locus YMR125W, strain sto1, stronger effect = lower value
Screen size: about 5,500 compounds; about 2,000 (36%) were called active. About 18% were inconclusive and are not listed. This is one part of the list.
Reported normalized growth values for the following compounds.
// keep it numeric: no unit symbol after the value

Guide cases for normalized growth, answers given:
{"columns": ["COMPOUND", "RECORDED RESULT"],
 "data": [
  ["c1ccc2c(c1)CCCC2C1=NCCN1 (stereo not given)", 1.03],
  ["Clc1ccc(C(c2ccc(Cl)cc2)C(Cl)(Cl)Cl)cc1", 1.01],
  ["CO/N=C1/CN(c2nc3c(cc2F)c(=O)c(C(=O)O)cn3C2CC2)CC1CN (stereo not given)", 1.02],
  ["COC(=O)c1cc(=O)c(O)c2c(O)c(O)ccc2c1", 0.989],
  ["CCn1cc(C(=O)O)c(=O)c2cc(F)c(N3CCNCC3)nc21", 0.973],
  ["O=c1cccc2ccc(O)c(O)c2c1O", 1]
]}

Exercise: // returns reported normalized growth for input C=C1C2CC[C@@]3(C)[C@H](c4ccoc4)OC(=O)C[C@]13O[C@H]1CC(=O)C(C)(C)[C@H](C(OC(C)=O)C(=O)OC)[C@@]21C (stereo not given in full)
Solution: 0.996

Exercise: Quick check: normalized growth of C=C1CCC2[C@](C)(CO)[C@H](O)CC[C@@]2(C)[C@@H]1C/C=C1/C(=O)OC[C@H]1O (stereo not given in full) ?
Solution: 0.98

Exercise: Could you tell me which normalized growth is on file for CC1COc2c(N3CCN(C)CC3)c(F)cc3c(=O)c(C(=O)O)cn1c23 (stereo not given) ?
Solution: 0.981

Exercise: Entry COc1ccc2c(c1)OC1(O)COc3cc(OC)c(OC)cc3C1=C2 (stereo not given) : reported normalized growth = ?
Solution: 0.985

----------
- ASSAY OVERVIEW: chemical genetic growth profiling, strain panel (AID 1159580);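 also: tested at 20 µM; growth read once vehicle control cultures reached saturation at 30 °C; 1 = growth at the plate median or of vehicle wells; lower values mean less growth of the strain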
- RECORDED CONDITIONS: S. cerevisiae deletion strains, growth OD, locus YAL030W, strain snc1
In all, about 5,500 compounds went through this assay and about 2,000 (36%) were called active. Another 18% or so got no clear call; they are omitted. Rule as the data show it: active = normalized growth mostly below about 0.91 (no sharp cut-off); inconclusive = no clear call, values can overlap the other calls; inactive = mostly above about 0.92. This is one part of the list.
Assign a class; possible classes are Y for active, N for inactive

Reference set, count: 4
{"columns": ["MOLECULE", "CLASS NAME"],
 "data": [
  ["COc1ccc(CN(CCN(C)C)c2ccccn2)cc1", "N"],
  ["COC(=O)C[C@H]1C2(C)CC34OC5(C)O[C@@]6([C@H](OC(C)=O)C(OC(C)=O)[C@]7(C)C(/C(=C(/O)C(C)C)C(=O)O[C@H]7c7ccoc7)[C@@]6(O5)[C@H](OC(C)=O)[C@@]3(O)C2OC(=O)C(C)C)[C@]14C (stereo not given in full)", "N"],
  ["CN(C)CCN(Cc1ccccc1)c1ccccn1", "N"],
  ["CCn1cc(C(=O)O)c(=O)c2cc(F)c(N3CCNC(C)C3)c(F)c21 (stereo not given)", "N"]
]}

With those in mind, consider the next molecule.
Exercise: Which result was noted for this molecule in the test: "C[n+]1c2cc(N)ccc2cc2ccc(N)cc21"
Solution: Y

The reported numbers originate from PubChem BioAssay AID1159580.
